meta.source: a protein production outcome set (Wang et al. 2014)

- ASSAY_COMMENT: label from the status in PepcDB records
MEASURED_METRIC: protein production

Here's what some known entries look like.
* MNYFLMIILGVLGAESRFAIELTIDNSAYPYGTLIINMIGCFLLGFMYYFFVEAKKTINQLVAVVSTGFVGSFTTFSTFELEIFKMFQLDQYLKAISYFFVTMLSGLLFVFLGYCLSKLIIIKRKENK | failed
* MSGSLARAAARPNAPTLVDEATVDDFIAHSGKIVVLFFRGDAVRFPEAADLAVVLPELINAFPGRLVAAEVAAEAERGLMARFGVAVCPSLAVVQPERTLGVIAKIQDWSSYLAQIGAMLAEVDQPGEAELQS | not failed
* MVEIIIPVGPNDKLEWVKRSVNSALLQSVDKVIIYDNSERADIYNFFQELKDKLVYIKDKRMTKVNMARLRNKMLSLASDKYVIMLDSDVVIPKNYSNNIINKLERGVAYTWIHYAYSEEEIEKPLSISENNPNLGCAGLNLEVIKRIGYFDERYERDEDVWLYAKLKKTGYKVEPAEGRCLHLNKVHARLNLSSSVAEARRNLWRSKYDIMLMFDGLTDFTFLTGYSYYGSYYILAILSVIFHPLTFLYLPLIGYGVYYYKGPKKYLLNLIPGLSLAISFPYGLGYNLIQKLK | failed
* MKGRWVKYLLMGTVVAMLAACSSKPTDRGQQYKDGKFTQPFSLVNQPDAVGAPINAGDFAEQINHIRNSSPRLYGNQSNVYNAVQEWLRAGGDTRNMRQFGIDAWQMEGADNYGNVQFTGYYTPVIQARHTRQGEFQYPIYRMPPKRGRLPSRAEIYAGALSDKYILAYSNSLMDNFIMDVQGSGYIDFGDGSPLNFFSYAGKNGHAYRSIGKVLIDRGEVKKEDMSMQAIRHWGETHSEAEVRELLEQNPSFVFFKPQSFAPVKGASAVPLVGRASVASDRSIIPPGTTLLAEVPLLDNNGKFNGQYELRLMVALDVGGAIKGQHFDIYQGIGPEAGHRAGWYNHYGRVWVLKTAPGAGNVFSG | not failed
* MYALISLEEDPSLLRYGYLSQDNVGDVRREVSKLCGELRPHALALVTSFGIPDSFLSPIAFNWVEANTWSSV | failed
* MKKGRFKRNWPIILFGIIVFIFSFYFKISPKSLKNFTDIMSASLSFSAIVTAIFFASFSLIPTSGSNKLVVMMEDLGTEIKIMDRLLVATFLSFISSLLSFISLFFSKTDTDLISILVVSSWLSSTVMMFLSSFFVLRTLILLVETYNNFKNK | failed

QUERY: Any idea what its protein production is? The sequence is MTPATTTLVFTYGTLKRGFSNHVLMQDLIRSGDASFKGVYQTLDKYPLVCGPYRVPFLLNKPGSGYHVNGELYAVSPRGLSRLDELEGISRGHYIRQPIRLAAAEEEEEEEGDLETEAPSSCVVEAYYAHKSYEEELWRRNRGRSFGAYTENEARGYVKRNDRPQHLSFLDHIRIFVSSPCD
RESULT: failed

QUERY: Now consider MKRVANWLAITGFVVHAISLVAGLQGHTWETISKGYFLQMLSWSMLLIYLFVWWKFKLDFLSALASPFALLIYLSSFKVAEVQSKLPESLSGLFFGLHIGTLFLSFGLMAMAFGAGVLFLHMERKIKTKEPLTGFRKDLPALSTFDRVNRLCVVWGFPLFTLGIVSGFVWAHPAWGKVITWDPKEIVSLAVWVMYALLFHQRVALGWQGRKPAVMVIWIFAVSVFSLIVVNVFMPTHHSFIQQ .
RESULT: failed
